In this section, each of the binders is paired with its reported TL1A Binding Level (Late).
# study.system: T1, human TL1A extracellular domain with N-terminal HIS and FLAG tag (human, UniProt O95150 72-251)
# T1 construct: the whole entry is named; also called TNFSF15
# T1 sequence: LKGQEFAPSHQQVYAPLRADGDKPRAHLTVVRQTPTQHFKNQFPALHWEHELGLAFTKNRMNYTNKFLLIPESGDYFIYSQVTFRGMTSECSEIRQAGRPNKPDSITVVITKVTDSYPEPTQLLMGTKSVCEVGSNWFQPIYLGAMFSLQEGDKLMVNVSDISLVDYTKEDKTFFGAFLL
# assay.overview: SPR Run 7, antibody on Protein A, TL1A 5 ug/mL, timepoint 220
readout: TL1A Binding Level (Late) (RU)

[
  {
    "binder": "320-521 (antibody, human IgG1, name in Kabat numbering, V domains shown, full-length human IgG1, lambda) VH: QVQLVQSGAEVKKPGASVKVSCKASGYTFTSYDINWVRQAPGQGLEWMGWLNPWSGNTGYAQKFQGRVTMTADRSTSTAYMELSSLRSEDTAVYYCAREVPETAAFEYWGQGTLVTVSS VL: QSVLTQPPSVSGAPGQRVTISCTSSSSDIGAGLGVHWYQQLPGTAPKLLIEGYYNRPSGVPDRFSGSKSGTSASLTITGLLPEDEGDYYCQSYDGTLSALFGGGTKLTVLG",
    "readout": "TL1A Binding Level (Late)",
    "reading": 152
  },
  {
    "binder": "320-531 (antibody, human IgG1, name in Kabat numbering, V domains shown, full-length human IgG1, lambda) VH: QVQLVQSGAEVKKPGASVKVSCKASGYTFTSYDINWVRQAPGQGLEWMGWLNPNSANTGYAQKFQGRVTMTADRSTSTAYMELSSLRSEDTAVYYCAREVPETAAFEYWGQGTLVTVSS VL: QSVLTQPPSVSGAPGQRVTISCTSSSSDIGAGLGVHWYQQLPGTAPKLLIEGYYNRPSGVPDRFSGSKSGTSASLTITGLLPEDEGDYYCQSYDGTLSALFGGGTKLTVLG",
    "readout": "TL1A Binding Level (Late)",
    "reading": 61
  },
  {
    "binder": "320-496 (antibody, human IgG1, name in Kabat numbering, V domains shown, full-length human IgG1, lambda) VH: QVQLVQSGAEVKKPGASVKVSCKASGYTFTSYDINWVRQAPGQGLEWMGWWNPNSGNTGYAQKFQGRVTMTADRSTSTAYMELSSLRSEDTAVYYCAREVPETAAFEYWGQGTLVTVSS VL: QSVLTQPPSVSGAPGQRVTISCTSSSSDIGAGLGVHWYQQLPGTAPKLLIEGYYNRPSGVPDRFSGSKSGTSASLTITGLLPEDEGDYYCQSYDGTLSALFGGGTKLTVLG",
    "readout": "TL1A Binding Level (Late)",
    "reading": 87
  }
]
